system: LS-123 (Colorectal Carcinoma); assay: combination Emax (second highest fraction inhibited in the dose matrix, 72 h); higher = more inhibition; extreme values may be limits of the assay
Let's look at some molecules and their measured combination Emax.

[
  {
    "molecule": "CN(C)CCCOc1ccc(-c2ccc3ncc4c(c3c2)n(C2CCOCC2)c(=O)n4C)cn1 [AZD0156] + C[C@@H]1COCCN1C2=NC(=NC(=C2)C3(CC3)[S@](=N)(=O)C)C4=C5C=CNC5=NC=C4 [AZD6738] (first compound max 1 µM, 7x7, partner max 10 µM)",
    "combination Emax": 0.644
  },
  {
    "molecule": "Cc1cc2ncnn2cc1Nc1ncc2c(n1)n(C1CCOCC1)c(=O)n2C [AZD7648] + C=CCn1c(=O)c2cnc(Nc3ccc(N4CCN(C)CC4)cc3)nc2n1-c1cccc(C(C)(C)O)n1 [AZD1775] (first compound max 10 µM, partner max 1 µM)",
    "combination Emax": 0.641
  },
  {
    "molecule": "NC1(C(=O)N[C@@H](CCO)c2ccc(Cl)cc2)CCN(c2ncnc3[nH]ccc23)CC1 [Capivasertib] + CC(C)n1c(=O)n(C)c2cnc3cc(F)c(-c4ccc(OCCCN5CCCCC5)nc4)cc3c21 [AZD1390] (first compound max 10 µM, 7x7, partner max 0.3 µM)",
    "combination Emax": 0.325
  },
  {
    "molecule": "COc1cccc(OCCCN)c1-c1cc(Nc2cnc(C#N)cn2)n[nH]1 [Prexasertib] + Cc1cc2ncnn2cc1Nc1ncc2c(n1)n(C1CCOCC1)c(=O)n2C [AZD7648] (first compound max 1 µM, 7x7, partner max 10 µM)",
    "combination Emax": 0.764
  }
]
